B1: SPRY1 (parent)
chain: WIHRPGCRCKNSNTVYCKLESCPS

# Variants of: B1
# protocol.summary: protein stability index of a GFP-peptide fusion (GPS, HEK-293T) (PSI 1-6); higher = more stable;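 note: lentivirally expressed fusions sorted by FACS into six bins by GFP to DsRed ratio, PSI derived from sequencing read proportions per bin multiplied by bin number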
# stated.conditions: c terminus: a fixed tail appended
Parameter threshold = 2. Response is 1 (yes) when protein stability index meets or exceeds it, else 0 (no).

# variant.id, assigned.label
measured = [
    ("C22W", "0 (no)"),
]

Incoming: Hi, just wondering whether P5H shows protein stability index of 2 or higher.
Outgoing: 0 (no)

Incoming: Hi, just wondering whether R4S shows protein stability index of 2 or higher.
Outgoing: 1 (yes)

Incoming: Hi, just wondering whether W1N shows protein stability index of 2 or higher.
Outgoing: 1 (yes)

Incoming: Hi, just wondering whether S12H shows protein stability index of 2 or higher.
Outgoing: 0 (no)

Incoming: Hi, just wondering whether K18T shows protein stability index of 2 or higher.
Outgoing: 1 (yes)
